biological target: human sEH (Homo sapiens (Human)); assay: In vitro determination of sEH inhibition activity (fluorescent assay, CMNPC substrate); conditions: purified recombinant human sEH, CMNPC 5 μM, 30° C., mean of triplicate
Sequence (P34913 whole entry): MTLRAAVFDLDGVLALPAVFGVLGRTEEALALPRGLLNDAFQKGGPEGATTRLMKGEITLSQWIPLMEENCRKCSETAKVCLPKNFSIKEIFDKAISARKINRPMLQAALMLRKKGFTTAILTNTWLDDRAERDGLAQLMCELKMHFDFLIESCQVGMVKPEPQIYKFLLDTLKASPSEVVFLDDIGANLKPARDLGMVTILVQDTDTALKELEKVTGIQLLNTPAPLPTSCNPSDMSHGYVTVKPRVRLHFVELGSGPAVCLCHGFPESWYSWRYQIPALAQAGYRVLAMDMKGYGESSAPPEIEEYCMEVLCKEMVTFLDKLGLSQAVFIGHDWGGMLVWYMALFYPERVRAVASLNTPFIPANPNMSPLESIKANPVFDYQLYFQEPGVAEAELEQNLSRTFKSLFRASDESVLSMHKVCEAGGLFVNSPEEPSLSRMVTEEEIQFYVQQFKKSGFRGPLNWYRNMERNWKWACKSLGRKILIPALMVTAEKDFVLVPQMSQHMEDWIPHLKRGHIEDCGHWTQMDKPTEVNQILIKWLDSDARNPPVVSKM
pIC50: −log10 of the molar value.
valueKind: pIC50

Some compounds with known pIC50 results, for comparison:
CC(=O)N1CCC(NC(=O)NC23CC4CC(C)(CC(C2)c2c(F)cccc24)C3)CC1 (stereo not shown) = 9.05
CC12CC3CC(NC(=O)NC4CCN(Cc5ccccc5)CC4)(CC(C1)c1ccccc13)C2 = 8.82
O=C(NC1CCN(c2ccc(C(=O)O)cc2)CC1)NC12CC3CC(F)(CC(C1)c1ccccc13)C2 = 9.30
COc1cc2c(cc1OC)C1CC3(Cl)CC2CC(NC(=O)NC2CCN(C(=O)C4CCOCC4)CC2)(C1)C3 = 9.40
CC12CC3CC(NC(=O)NC4C[C@H]5CC[C@@H](C4)N5Cc4ccccc4)(CC(C1)c1ccccc13)C2 (stereo partly shown) = 8.33

P: O=C(NC1CCN(C(=O)c2ccc(C(=O)O)cc2)CC1)NC12CC3CC(Cl)(CC(C1)c1ccccc13)C2
Q: CC(=O)N1CCC(NC(=O)NC23CC4CC(C)(CC(C2)c2cc(F)ccc24)C3)CC1 (stereo not shown)
Query: Smaller pIC50 value? Options are P and Q Response format: the label of the selected entry.
Response: Q

----------
Experiment: In vitro determination of microsomal stability
Type: in vitro ADME
Conditions: human microsomes, 37° C., samples at 0-60 min
Protocol: The human recombinant microsomes employed were purchased from Tebu-Xenotech. […] Samples (75 μL) were taken from each well at 0, 10, 20, 40 and 60 min and transferred to a plate containing 4° C. […] The plate was centrifuged (46000 g, 30 min) and supernatants were taken and analyzed in a UPLC-MS/MS (Xevo-TQD, Waters) by employing a BEH C18 column and an isocratic gradient of 0.1% formic acid in water:0.1% formic acid acetonitrile (60:40). […]
valueKind: Microsomal stability (% remanent) (%)

O=C(NC1CCN(c2ccc(C(=O)O)cc2)CC1)NC12CC3CC(F)(CC(C1)c1ccccc13)C2 [Example 13] = 100
O=C(NC12CC3CC(F)(CC(C1)c1ccccc13)C2)N[C@H]1CC[C@H](Oc2ccc(C(=O)O)cc2)CC1 [Example 1] = 77
O=C(NC1CCN(c2ccc(C(=O)O)cc2)CC1)NC12CC3CC(Cl)(CC(C1)c1ccccc13)C2 [Example 14] = 99
COc1cc2c(cc1OC)C1CC3(Cl)CC2CC(NC(=O)NC2CCN(C(=O)C4CCOCC4)CC2)(C1)C3 [Example 6] = 42
O=C(NC1CCN(C(=O)c2ccc(C(=O)O)cc2)CC1)NC12CC3CC(Cl)(CC(C1)c1ccccc13)C2 [Example 16] = 88

A: CC(=O)c1ccc(N2CCC(NC(=O)NC34CC5CC(C)(CC(C3)c3ccccc35)C4)CC2)cc1 [Example C12]
B: COc1ccc2c(c1)C1CC3(C)CC2CC(NC(=O)NC2CCN(C(C)=O)CC2)(C1)C3 (stereo not shown) [Example C10]
Query: Kindly identify the item with the lower Microsomal stability (% remanent) figure among these two: A and B Give the label under which the chosen entry appears.
Response: A

----------
Experiment: In vitro determination of microsomal stability
Format: in vitro ADME
Settings: human microsomes, 37° C., samples at 0-60 min
Method: The human recombinant microsomes employed were purchased from Tebu-Xenotech. […] Samples (75 μL) were taken from each well at 0, 10, 20, 40 and 60 min and transferred to a plate containing 4° C. […] The plate was centrifuged (46000 g, 30 min) and supernatants were taken and analyzed in a UPLC-MS/MS (Xevo-TQD, Waters) by employing a BEH C18 column and an isocratic gradient of 0.1% formic acid in water:0.1% formic acid acetonitrile (60:40). […]
valueKind: Microsomal stability (% remanent) (%)

CC12CC3CC(NC(=O)Nc4ccc(F)c(F)c4F)(CC(C1)c1ccccc13)C2 = 7
CC(=O)N1CCC(NC(=O)NC23CC4CC(C)(CC(C2)c2cc(F)ccc24)C3)CC1 (centres unmarked) = 22
CC(=O)N1CCC(NC(=O)NC23CC4CC(C)(CC(C2)c2c(F)cccc24)C3)CC1 (centres unmarked) = 16
CC12CC3CC(NC(=O)NC4C[C@H]5CC[C@@H](C4)N5Cc4ccccc4)(CC(C1)c1ccccc13)C2 (some centres unmarked) = 0.1
O=C(NC12CC3CC(Cl)(CC(C1)c1ccccc13)C2)N[C@H]1CC[C@H](Oc2ccc(C(=O)O)cc2)CC1 = 89

1: CC12CC3CC(NC(=O)NC4CCN(Cc5ccccc5)CC4)(CC(C1)c1ccccc13)C2
2: COc1cc2c(cc1OC)C1CC3(F)CC2CC(NC(=O)NC2CCN(C(=O)C4CCOCC4)CC2)(C1)C3
3: CC(=O)N1CCC(NC(=O)NC23CC4CC(C)(CC(C2)c2ccccc24)C3)CC1
Query: With regard to Microsomal stability (% remanent), arrange the entries in ascending order, please. Please list the labels in the order you were asked to rank them.
Response: 1, 3, 2
(1: 0.1%, 3: 1%, 2: 100%)
